Every entry's value here was drawn from ChEMBL document CHEMBL1201862.

test system: M14; assay: NCI tumour cell line growth inhibition, 48 h
Activity calls are given as the source filed them. Cut-off read from the data, not from the text of the source: active = GI50 up to about 1.1 µM and inactive = higher.
Your response should consist of one outcome taken from active, inactive

# example entries with known answers
> print(dat)
                                   compound  qualitative.label
1  CN(C)CCNC(=O)c1ccc(NCCCN(C)CCCNc2ccc(C(=O)NCCN(C)C)c3nc4ccc([N+](=O)[O-])cc4c(O)c23)c2c(O)c3cc([N+](=O)[O-])ccc3nc12             active
2  N#Cc1c(-c2ccc(Cl)cc2)cc(-c2ccc(Nc3ccnc4cc(C(F)(F)F)ccc34)cc2)nc1N           inactive

--- query ---
Called result for "O[C@@H]1[C@H](OC2c3ccccc3-c3ccccc32)[C@H](OCc2ccccc2)[C@@H]2OC[C@H]1O2"
inactive

###

tested on: OVCAR-4; assay: NCI tumour cell line growth inhibition, 48 h
Activity calls are given as the source filed them. Cut-off read from the data, not from the text of the source: active = GI50 up to about 1.1 µM and inactive = higher.
Measured GI50 accompanies every entry in the list below.

Here are 4 compounds together with their reported answers.
> print(dat)
                              smiles.string  reported.property             reported
1  O=C(O)c1ccccc1Sc1ccc(C=C2NC(=S)N(c3ccccc3)C2=O)s1               GI50   24.9 µM (inactive)
2  COc1ccc(/C=C(\NC(=O)c2ccccc2)C(=O)NN(C)c2ccnc3cc(Cl)ccc23)cc1OC               GI50   30.7 µM (inactive)
3  COc1ccccc1NCc1cccc2c(=O)c3ccc(Cl)cc3oc12               GI50  > 100 µM (inactive)
4  Cc1c2c(C(N)=O)nccc2c(C)c2c1c1ccccc1n2Cc1ccccc1               GI50   2.61 µM (inactive)

Which measured GI50 value corresponds to "C=C(CO[Si](C)(C)C(C)(C)C)C(C)=O" ?
21 µM (inactive)

###

system: NCI-H460; assay: NCI tumour cell line growth inhibition, 48 h
Calls of active or inactive are those of the source. Rule as the data show it: active = GI50 up to about 1.1 µM and inactive = higher.
Your response should consist of one outcome taken from yes (1) = active, no (0) = inactive

# example entries with known answers
> print(dat)
                                   compound  qualitative.label
1  CCCCCCCCCCCCCCCCNC(=O)/C(O)=C/C(=O)c1ccc(C)cc1             no (0)
2  Cc1ccc(/N=N/C(=N/NC(=O)c2cc(Cl)ccc2C(=O)c2ccccc2)c2ccc(N(CCC#N)CCC#N)cc2C)cc1             no (0)
3  CC(=O)C(=Cc1ccc(C=C(C(C)=O)C(C)=O)cc1)C(C)=O             no (0)
4           CCCCCCCCCCCCCCCC(=O)NCC(OCC)OCC             no (0)

Called result for C/C(O)=C1\CC2CN3CCc4c([nH]c5ccccc45)C3CC2CC1=O (stereo unspecified)
no (0)

Called result for CCOC(=O)Cc1nc2c(O)ncnc2n1C1OC(COC(C)=O)C(OC(C)=O)C1OC(C)=O (stereo unspecified)
no (0)

Called result for CC(C)(C)OC(=O)N1CC(CCl)c2ccc(O)cc21 (stereo unspecified)
no (0)

Called result for C/C1=C/C2=CC(C)C[C@@H]2C(=O)[C@]2(C)C(=O)CC(C)(C)[C@H]2CC1=O (stereo partly specified)
no (0)

Called result for "NNC(=O)Cc1cccnc1"
no (0)

Called result for O=C(CC1Sc2ccccc2NC1=O)Nc1cc(Cl)ccc1Cl (stereo unspecified)
no (0)

Called result for "S=C(N/N=C(/c1ccccc1)c1ccccn1)Nc1ccccc1Cl"
yes (1)
